Test system: Aspergillus niger
Method: Antifungal activity against Aspergillus niger at 50 ug/mL incubated for 3 days by agar well diffusion method
Format: functional
Particulars: 72 h, read-out: IZ
Starred links: 1 amine or outer side, 2 acyl side, 3 side chain; linkers in the order of their positions; H or OH if unused. Residues, ends and D or L forms follow the SMILES beside them. *: point of attachment. Thiocarbamoyl(4-MeOPh) = COc1ccc(NC(=S)*)cc1; NH(4-MeO-phenyl) = COc1ccc(N*)cc1; X1 = c1ccc2c(N3CCN(*)CC3)nsc2c1; NH(2-F-phenyl) = Fc1ccccc1N*; X2 = Fc1ccc(NC(=S)*)cc1; CO = O=C([*:1])[*:2]
# zone of inhibition at 50 µg/mL per record follows
Outcome Measure: zone of inhibition at 50 µg/mL (mm)

1. COc1ccc(NC(=S)NCC(=O)N[C@H](C(=O)NCC(=O)N[C@H](C(=O)N2CCC[C@H]2C(=O)N2CCN(c3nsc4ccccc34)CC2)C(C)C)C(C)C)cc1 ({Thiocarbamoyl(4-MeOPh)}-GVGVP-X1)    24
2. CC(C)[C@H](NC(=O)CNC(=O)Nc1ccccc1F)C(=O)NCC(=O)N[C@H](C(=O)N1CCC[C@H]1C(=O)N1CCN(c2nsc3ccccc23)CC1)C(C)C ({NH(2-F-phenyl)-CO}-GVGVP-X1)    25
3. COc1ccc(NC(=S)NCC(=O)N[C@@H](Cc2ccccc2)C(=O)NCC(=O)N[C@H](C(=O)N2CCC[C@H]2C(=O)N2CCN(c3nsc4ccccc34)CC2)C(C)C)cc1 ({Thiocarbamoyl(4-MeOPh)}-GFGVP-X1)    30
4. CC(C)[C@H](NC(=O)CNC(=O)[C@H](Cc1ccccc1)NC(=O)CNC(=S)Nc1ccc(F)cc1)C(=O)N1CCC[C@H]1C(=O)N1CCN(c2nsc3ccccc23)CC1 (X2-GFGVP-X1)    35
5. COc1ccc(NC(=O)NCC(=O)N[C@@H](Cc2ccccc2)C(=O)NCC(=O)N[C@H](C(=O)N2CCC[C@H]2C(=O)N2CCN(c3nsc4ccccc34)CC2)C(C)C)cc1 ({NH(4-MeO-phenyl)-CO}-GFGVP-X1)    28

---

# IC50 per record follows
Method: Antiglycation activity using bovine serum albumin incubated at 37 degC for 7 days by spectrofluorimetry
Assay type: physicochemical
Starred links: 1 amine or outer side, 2 acyl side, 3 side chain; linkers in the order of their positions; H or OH if unused. Residues, ends and D or L forms follow the SMILES beside them. *: point of attachment. Thiocarbamoyl(4-MeOPh) = COc1ccc(NC(=S)*)cc1; Thiocarbamoyl(N-2-FPh) = Fc1ccccc1NC(=S)*; NH(4-MeO-phenyl) = COc1ccc(N*)cc1; X1 = c1ccc2c(N3CCN(*)CC3)nsc2c1; NH(4-F-phenyl) = Fc1ccc(N*)cc1; NH(2-F-phenyl) = Fc1ccccc1N*; NH(3-MeOPh) = COc1cccc(N*)c1; X4 = COc1cccc(NC(=S)*)c1; X2 = Fc1ccc(NC(=S)*)cc1; X5 = COc1ccccc1NC(=S)*; Boc = CC(C)(C)OC(=O)*; CO = O=C([*:1])[*:2]; X6 = Fc1cccc(N*)c1; X3 = COc1ccccc1N*
Outcome Measure: IC50

1) COc1cccc(NC(=S)NCC(=O)N[C@H](C(=O)NCC(=O)N[C@H](C(=O)N2CCC[C@H]2C(=O)N2CCN(c3nsc4ccccc34)CC2)C(C)C)C(C)C)c1 (X4-GVGVP-X1)    23 µM
2) CC(C)[C@H](NC(=O)CNC(=O)[C@H](Cc1ccccc1)NC(=O)CNC(=O)Nc1cccc(F)c1)C(=O)N1CCC[C@H]1C(=O)N1CCN(c2nsc3ccccc23)CC1 ({X6-CO}-GFGVP-X1)    50 µM
3) COc1ccccc1NC(=O)NCC(=O)N[C@H](C(=O)NCC(=O)N[C@H](C(=O)N1CCC[C@H]1C(=O)N1CCN(c2nsc3ccccc23)CC1)C(C)C)C(C)C ({X3-CO}-GVGVP-X1)    24 µM
4) COc1ccccc1NC(=S)NCC(=O)N[C@@H](Cc1ccccc1)C(=O)NCC(=O)N[C@H](C(=O)N1CCC[C@H]1C(=O)N1CCN(c2nsc3ccccc23)CC1)C(C)C (X5-GFGVP-X1)    19 µM
5) CC(C)[C@H](NC(=O)CNC(=O)Nc1ccc(F)cc1)C(=O)NCC(=O)N[C@H](C(=O)N1CCC[C@H]1C(=O)N1CCN(c2nsc3ccccc23)CC1)C(C)C ({NH(4-F-phenyl)-CO}-GVGVP-X1)    40 µM
6) COc1ccccc1NC(=O)NCC(=O)N[C@@H](Cc1ccccc1)C(=O)NCC(=O)N[C@H](C(=O)N1CCC[C@H]1C(=O)N1CCN(c2nsc3ccccc23)CC1)C(C)C ({X3-CO}-GFGVP-X1)    22 µM
7) COc1ccc(NC(=O)NCC(=O)N[C@H](C(=O)NCC(=O)N[C@H](C(=O)N2CCC[C@H]2C(=O)N2CCN(c3nsc4ccccc34)CC2)C(C)C)C(C)C)cc1 ({NH(4-MeO-phenyl)-CO}-GVGVP-X1)    21 µM
8) C[C@@H]1O[C@@H](OC[C@H]2O[C@@H](Oc3c(-c4ccc(O)c(O)c4)oc4cc(O)cc(O)c4c3=O)[C@H](O)[C@@H](O)[C@@H]2O)[C@H](O)[C@H](O)[C@H]1O [RUTIN]    41.9 µM
9) CC(C)[C@H](NC(=O)CNC(=O)[C@H](Cc1ccccc1)NC(=O)CNC(=S)Nc1ccccc1F)C(=O)N1CCC[C@H]1C(=O)N1CCN(c2nsc3ccccc23)CC1 ({Thiocarbamoyl(N-2-FPh)}-GFGVP-X1)    48 µM
10) CC(C)[C@H](NC(=O)CNC(=O)Nc1cccc(F)c1)C(=O)NCC(=O)N[C@H](C(=O)N1CCC[C@H]1C(=O)N1CCN(c2nsc3ccccc23)CC1)C(C)C ({X6-CO}-GVGVP-X1)    52 µM
11) CC(C)[C@H](NC(=O)CNC(=O)[C@H](Cc1ccccc1)NC(=O)CNC(=O)Nc1ccc(F)cc1)C(=O)N1CCC[C@H]1C(=O)N1CCN(c2nsc3ccccc23)CC1 ({NH(4-F-phenyl)-CO}-GFGVP-X1)    44 µM
12) COc1ccc(NC(=S)NCC(=O)N[C@@H](Cc2ccccc2)C(=O)NCC(=O)N[C@H](C(=O)N2CCC[C@H]2C(=O)N2CCN(c3nsc4ccccc34)CC2)C(C)C)cc1 ({Thiocarbamoyl(4-MeOPh)}-GFGVP-X1)    16 µM
13) CC(C)[C@H](NC(=O)CNC(=O)Nc1ccccc1F)C(=O)NCC(=O)N[C@H](C(=O)N1CCC[C@H]1C(=O)N1CCN(c2nsc3ccccc23)CC1)C(C)C ({NH(2-F-phenyl)-CO}-GVGVP-X1)    54 µM
14) CC(C)[C@H](NC(=O)CNC(=O)[C@H](Cc1ccccc1)NC(=O)CNC(=O)Nc1ccccc1F)C(=O)N1CCC[C@H]1C(=O)N1CCN(c2nsc3ccccc23)CC1 ({NH(2-F-phenyl)-CO}-GFGVP-X1)    53 µM
15) CC(C)[C@H](NC(=O)CNC(=O)[C@H](Cc1ccccc1)NC(=O)CNC(=S)Nc1ccc(F)cc1)C(=O)N1CCC[C@H]1C(=O)N1CCN(c2nsc3ccccc23)CC1 (X2-GFGVP-X1)    42 µM
16) COc1cccc(NC(=S)NCC(=O)N[C@@H](Cc2ccccc2)C(=O)NCC(=O)N[C@H](C(=O)N2CCC[C@H]2C(=O)N2CCN(c3nsc4ccccc34)CC2)C(C)C)c1 (X4-GFGVP-X1)    20 µM
17) COc1cccc(NC(=O)NCC(=O)N[C@@H](Cc2ccccc2)C(=O)NCC(=O)N[C@H](C(=O)N2CCC[C@H]2C(=O)N2CCN(c3nsc4ccccc34)CC2)C(C)C)c1 ({NH(3-MeOPh)-CO}-GFGVP-X1)    23 µM
18) COc1ccc(NC(=S)NCC(=O)N[C@H](C(=O)NCC(=O)N[C@H](C(=O)N2CCC[C@H]2C(=O)N2CCN(c3nsc4ccccc34)CC2)C(C)C)C(C)C)cc1 ({Thiocarbamoyl(4-MeOPh)}-GVGVP-X1)    18 µM
19) CC(C)[C@H](NC(=O)CNC(=O)[C@H](Cc1ccccc1)NC(=O)CNC(=O)OC(C)(C)C)C(=O)N1CCC[C@H]1C(=O)N1CCN(c2nsc3ccccc23)CC1 (Boc-GFGVP-X1)    235 µM
20) CC(C)[C@H](NC(=O)CNC(=S)Nc1ccc(F)cc1)C(=O)NCC(=O)N[C@H](C(=O)N1CCC[C@H]1C(=O)N1CCN(c2nsc3ccccc23)CC1)C(C)C (X2-GVGVP-X1)    34 µM
